# Tested on: L1210 leukemia ip in BDF1 mice, survival T/C
# run_description: NCI In Vivo Anticancer Drug Screen. Data for tumor model L1210 Leukemia (intraperitoneal) in B6D2F1 (BDF1) mice
# measurement_context: endpoint: mean survival time; dose: 6.25 mg/kg/injection; schedule: Q01DX009 (ip); vehicle: saline; higher = longer survival
# Protocol: The antitumor activity of compounds was measured in mice bearing transplantable tumors. Survival or tumor size were measured and the results are expressed as the measurement made in the treated group (T) divided by the measurement made in the vehicle treated control group (C). The tumor model used in this assay is L1210 Leukemia (intraperitoneal) in B6D2F1 (BDF1) mice
Toxic doses and inconclusive results are not listed.
We begin with a simple list: items and their reported T/C.
readout_name: T/C

In [3]: df
Out[3]:
                                   molecule           reading
0  CC1CC[N+]2(C)CCCC12 (configuration not stated)  100 % of control
1  NC(CSC(c1ccccc1)(c1ccccc1)c1ccc2ccccc2c1)C(=O)O (configuration not stated)  187 % of control
2  CCC1COC(=S)N1 (configuration not stated)   91 % of control
3                     CCCC[As](=O)(O)CC(C)C   93 % of control
4  COC(=O)C1=C(C(=O)OC)[C@H]2O[C@H]1[C@@H]1O[C@@H]12  104 % of control
5  C=C1CC[N+]2(CCCCCC)CCCC12 (configuration not stated)   97 % of control
6               COc1cc2ccc3c(c2cc1OC)C=NCC3  105 % of control

----------
# Test system: L1210 leukemia ip in BDF1 mice, survival T/C
# run_description: NCI In Vivo Anticancer Drug Screen. Data for tumor model L1210 Leukemia (intraperitoneal) in B6D2F1 (BDF1) mice
# measurement_context: endpoint: mean survival time; dose: 400.0 mg/kg/injection; schedule: Q01DX009 (ip); vehicle: saline; higher = longer survival
Toxic doses and inconclusive results are not listed.
readout_name: T/C

In [3]: df
Out[3]:
                                    molecule  readout_name           reading
 0  CCOC(=O)C(C)C1(O)CCCCC1 (stereo not given)           T/C   98 % of control
 1         CCSc1nc2c([nH]1)c(=S)n(C)c(=O)n2C           T/C  103 % of control
 2                                CCCNC(C)=O           T/C   91 % of control
 3                     C1CCC(=[N+]2CCCC2)CC1           T/C   88 % of control
 4  N#CCCC(CC#N)S(=O)(=O)O (stereo not given)           T/C  102 % of control
 5                      COC(=O)C(=NO)C(=O)OC           T/C  106 % of control
 6                  COC(=O)c1ccnc(C(=O)OC)c1           T/C   93 % of control
 7             COC(=O)c1csc(-c2csc(CCN)n2)n1           T/C   89 % of control
 8                       O=Cc1c[nH]c2nccnc12           T/C  100 % of control
 9  COC(=O)C1C(C(=O)OC)C2C3OC(=O)C(C2C(=O)OC)C1C3C (stereo not given)           T/C   87 % of control
10  CC(C)(SCc1ccccc1)C(N)C(=O)O (stereo not given)           T/C   91 % of control
11  CCOC(=O)CCCC1(C)C(C#N)C(=O)NC(=O)C1C#N (stereo not given)           T/C   90 % of control
12     CC(C)(C)OC(=O)NCC(=O)NNC(=O)OC(C)(C)C           T/C   92 % of control
13         CC#CCOCC(O)CCl (stereo not given)           T/C  105 % of control
14  O=C(O)C(CCc1ccccc1)N1CCOCC1 (stereo not given)           T/C  103 % of control
